Reported fold change (FC) values are given for each entry in this list.
target: GABA-A receptor; alpha-1/beta-3/gamma-2 (Homo sapiens) (UniProt P14867+P18507+P28472); test: Inhibition of R-mTFD-MPAB-induced [3H]muscimol binding to full length human N-terminal flag-tagged alpha1-beta3-C-terminal 1D4-tagged gamma2 GABAA receptor extracted from Tetracycline-resistant HEK293 cell membrane assessed as fold change at 300 uM incubated for 30 mins; assay type: cell membranes; settings: filed as modulator
Endpoint name: fold change (FC)

>>> result("O=C1NC(=O)C2(CCc3ccc(Br)cc32)C(=O)N1")
0.9
>>> result("CC(C)c1ccc2c(c1)C1(CC2)C(=O)NC(=O)NC1=O")
0.9
>>> result("Cc1ccc2c(c1)C1(CC2)C(=O)NC(=O)N(C)C1=O (stereo in doubt; 4h-1)")
0.88
